biological target: WT STING (Homo sapiens, UniProt Q86WV6, H232R); test: Digitonin assay using 293T wtSTING-FL reporter cells; format: cell-based; set-up: host or cells: 293T (ATCC CRL-3216), stably transfected; also carries the 4xISRE firefly luciferase reporter; details: 293T wtSTING-FL cells, digitonin buffer 30 min, then 5 h, ISRE firefly luciferase reporter; read-out: Digitonin assay EC50 WT STING
Sequence (Q86WV6 whole entry H232R): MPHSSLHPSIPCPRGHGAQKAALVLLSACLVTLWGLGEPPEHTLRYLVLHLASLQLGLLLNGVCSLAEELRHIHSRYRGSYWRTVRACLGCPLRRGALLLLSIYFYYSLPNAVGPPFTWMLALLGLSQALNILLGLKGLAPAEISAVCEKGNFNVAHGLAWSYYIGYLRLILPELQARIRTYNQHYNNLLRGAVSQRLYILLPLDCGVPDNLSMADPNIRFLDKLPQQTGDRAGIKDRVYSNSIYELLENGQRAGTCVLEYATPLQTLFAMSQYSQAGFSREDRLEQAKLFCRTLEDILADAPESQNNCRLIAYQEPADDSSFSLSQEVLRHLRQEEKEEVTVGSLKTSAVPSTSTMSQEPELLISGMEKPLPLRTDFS
pEC50: −log10 of the molar value.
Observed Property: pEC50

>  <Compound>
Cc1cn([C@@H]2O[C@@H]3COP(=O)(O)OC4C(O)[C@@H](COP(=O)(O)OC3C2O)C[C@H]4n2cnc3c(=O)[nH]c(N)nc32)c2ncnc(N)c12 (some centres unmarked) [Compound 113]

>  <pEC50>
6.92

$$$$
>  <Compound>
Nc1nc2c(ncn2[C@@H]2C[C@@H]3COP(=O)(O)OC4C(O)[C@H](n5cnc6c(S)ncnc65)O[C@@H]4COP(=O)(O)OC2C3O)c(=O)[nH]1 (some centres unmarked) [Compound 107]

>  <pEC50>
5.19

$$$$

(P) Nc1ncnc2c1ncn2[C@@H]1O[C@@H]2COP(=O)(S)O[C@@H]3[C@H](F)[C@@H](COP(=O)(S)O[C@H]2[C@H]1F)C[C@H]3n1cnc2c(=O)[nH]cnc21 (single isomer, unassigned) [Compound 128a]
(Q) Nc1nc2c(ncn2[C@@H]2C[C@@H]3COP(=O)(O)OC4C(O)[C@H](n5nnc6c(N)ncnc65)O[C@@H]4COP(=O)(O)OC2C3O)c(=O)[nH]1 (some centres unmarked) [Compound 116]
(R) Nc1nc2c(ncn2[C@@H]2C[C@@H]3COP(=O)(O)OC4C(O)[C@H](n5cnc6c(=O)[nH]cnc65)O[C@@H]4COP(=O)(O)OC2C3O)c(=O)[nH]1 (some centres unmarked) [Compound 104]
INPUT: Rank by pEC50 (largest to smallest). List labels; respect the requested ordering.
OUTPUT: P, R, Q
